The measured values listed here are drawn from ChEMBL document CHEMBL3286254.

assaySystem: Plasminogen (Homo sapiens, UniProt P00747)
Sequence (P00747 97-580 limits assumed): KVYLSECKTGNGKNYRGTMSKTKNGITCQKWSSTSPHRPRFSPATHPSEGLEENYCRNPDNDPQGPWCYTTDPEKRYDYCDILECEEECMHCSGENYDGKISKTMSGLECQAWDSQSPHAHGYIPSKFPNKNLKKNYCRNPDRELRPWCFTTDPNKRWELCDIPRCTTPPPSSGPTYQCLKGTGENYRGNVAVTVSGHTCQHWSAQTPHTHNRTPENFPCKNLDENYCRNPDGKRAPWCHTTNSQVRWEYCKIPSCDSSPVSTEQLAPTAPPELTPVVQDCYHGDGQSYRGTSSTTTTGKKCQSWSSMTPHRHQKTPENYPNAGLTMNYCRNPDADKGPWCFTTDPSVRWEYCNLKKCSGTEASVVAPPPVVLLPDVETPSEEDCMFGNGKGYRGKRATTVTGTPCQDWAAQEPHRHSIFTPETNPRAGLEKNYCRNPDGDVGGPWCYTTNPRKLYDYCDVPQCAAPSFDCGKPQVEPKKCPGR
Sequence (P00747 581-810 limits assumed): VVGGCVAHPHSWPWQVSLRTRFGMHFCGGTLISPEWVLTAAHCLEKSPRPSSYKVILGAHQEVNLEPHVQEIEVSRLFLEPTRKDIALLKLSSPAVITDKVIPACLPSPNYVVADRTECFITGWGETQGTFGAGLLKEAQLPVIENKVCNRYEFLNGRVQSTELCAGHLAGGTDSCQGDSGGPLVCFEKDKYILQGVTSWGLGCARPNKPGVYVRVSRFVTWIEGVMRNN
// reported Ki per item
Hi! Could you send only the number? It should be in µM, unit omitted.

N=C(N)c1ccc(Oc2cc(Oc3ccc(C(=N)N)cc3)cc(C(=O)NCC3CCCCC3)c2)cc1 :: 2.16
N=C(N)c1ccc(Oc2cc(NC(=O)C3CCN(C(=O)CCN)CC3)cc(Oc3ccc(C(=N)N)cc3)c2)cc1 :: 2.59
CCOC(=O)N1CCC(NC(=O)c2cc(Oc3ccc(C(=N)N)cc3)cc(Oc3ccc(C(=N)N)cc3)c2)CC1 :: 2.63

Find the measured Ki of N=C(N)c1ccc(Oc2cc(Oc3ccc(C(=N)N)cc3)cc(C(=O)N3CCC4CCCCC4C3)c2)cc1 (centres undefined) with Plasminogen (Homo sapiens, UniProt P00747) as test system.
1.53
